Assay: NCI Yeast Anticancer Drug Screen. Data for the mlh1 rad18 strain (AID 175)
Settings: S. cerevisiae mlh1 rad18 strain growth inhibition; at 50.0 µM
About 79,000 compounds went through this panel and 15% of them were active in at least one assay; those are over-represented in the sample as a whole. Activity calls are given as the source filed them. No stated cut-off is given here; in the data, active means growth inhibition above about 70%; inactive means the rest.
Write down the outcome that applies. Available outcomes: true (active), false (inactive)

Prompt: What did the test return for O=C(c1ccccc1)c1nc2c(Cl)ccc(Cl)c2cc1C(Br)Br ?
Response: false

Prompt: Short answer needed: outcome of this test for Cc1cc(C)c(C(=O)CSC(=N)N)c(C)c1 ?
Response: false

Prompt: What call does the record list for O=C1CCNC/C1=C\c1ccccc1 ?
Response: false

Prompt: Recorded test call requested for CCCCCCCCC(Br)C(Br)CCCCCCCC(=O)NCCCOC (centres undefined)
Response: false

Prompt: I'd appreciate the recorded outcome for COc1ccc(-c2onc3ccc(Cl)cc23)cc1 from this test.
Response: false

###

Assay: NCI Yeast Anticancer Drug Screen. Data for the bub3 strain (AID 167)
Conditions: S. cerevisiae bub3 mutant strain, at 50.0 µM, hits give high values
The panel holds about 79,000 compounds, 15% with a hit somewhere; the sample as a whole holds those more often.
The compounds listed here are annotated with their growth inhibition.
Could you give me the number in %? Just the number is fine.

Cc1cccc(C)c1NCC1CO1 (stereo unspecified) | -17.6
COC(=O)[C@H]1[C@H]2C[C@@H]3c4[nH]c5ccccc5c4CCN3C[C@H]2C[C@@H](OC(=O)c2cc(OC)c(OC)c(OC)c2)[C@@H]1OC | 18.5
CC(=O)Nc1ccc(S(=O)(=O)[N-]C2C(=O)c3ccccc3C(=O)C2[n+]2ccccc2)cc1 (stereo unspecified) | 27.8
CCC(Cc1ccccc1)OC(=O)c1ccccc1C(=O)O (stereo unspecified) | -6.85
N=C(N)SC1CC2CC1C1C=CCC21 (stereo unspecified) | 9.05

Proceed to the following item.
Prompt: Form field: reported growth inhibition of CCCS(=O)(=O)N/N=C(\C)c1cccs1
Response: 1.35

###

Test: NCI Yeast Anticancer Drug Screen. Data for the mlh1 rad18 strain (AID 175)
Settings: S. cerevisiae mlh1 rad18 strain growth inhibition; at 50.0 µM
Procedure: Growth inhibition of yeast strains with defined genetic alterations is measured as a screen for potential anti-cancer activity. Selected strains with alterations in DNA damage repair or cell cycle control were exposed to compounds and growth inhibition was measured relative to vehicle treated controls. The strain used in this assay is mlh1 rad18
Compounds without any hit were thinned out: in the full panel of roughly 79,000, 15% have a hit. The source made the active and inactive calls. Cut-off read from the data, not from the text of the source: active = growth inhibition above about 70%; inactive = the rest.
Valid outcomes are listed here; reply with one: active, inactive

O=S1Cc2nc3ccccc3n2C1c1c(F)cccc1F (configuration not stated) | inactive
NC(=O)C(=CNC(=S)Nc1ccc(S(=O)(=O)Nc2ccccn2)cc1)C(N)=O | inactive
NCC(=O)Nc1ccc(C(=O)O)cc1 | inactive
NC(=O)C(NN=C1c2ccccc2-c2ccccc21)(c1ccccc1)c1ccccc1 | inactive
ClC1C2c3ccccc3C1C1C2C2(c3ccccc3)OC1(c1ccccc1)c1ccccc12 (configuration not stated) | inactive

Prompt: Check the results log: what was the call for C=CCC(CC=C)(C(=O)Nc1ccc2nc(C)cc(N)c2c1)C(=O)Nc1ccc2nc(C)cc(N)c2c1 ?
Response: inactive

Prompt: Short answer needed: outcome of this test for Cc1cccc(C2=N/C(=C\c3ccccc3)C(=O)O2)c1 ?
Response: inactive

Prompt: I'd appreciate the recorded outcome for N#CC(C#N)=C(O)/C(=C/c1ccccc1[N+](=O)[O-])NC(=O)c1ccccc1 from this test.
Response: inactive
